- Test system: Rhipicephalus (Boophilus) microplus larvae (strain Parkhurst, resistant against synthetic pyrethroids)
- Protocol Text: Rhipicephalus (Boophilus) microplus in-vitro contact test, larval cattle tick
- Assay type: in vivo
- Cond: application rate 1 μg/cm^2 (=100 g/ha), after 48 hours, read-out: activity (efficacy: larvae dead or moribund)
Reported pest or weed control at 1 µg/cm2, 100 g/ha values for the following molecules.
Measure Name: pest or weed control at 1 µg/cm2, 100 g/ha (%)

> print(dat)
                                   molecule  assay.result
1  C[C@H](NC(=O)c1cc(OC(F)(F)F)cc(C2CC2)c1)c1ncnn1-c1ccc(C(=O)N2CCOC[C@@H]2C)cn1 [Example I-66]           100
2  C[C@@H]1CN(C(=O)c2ccc(-n3ncnc3[C@H](C)NC(=O)c3cc(OC(F)(F)F)cc(C4CC4)c3)nc2)C[C@@H](C)O1 [Example I-116]           100
3  C[C@H](NC(=O)c1cc(C(F)(F)F)cc(C(F)(F)F)c1)c1ncnn1-c1ccc(S(=O)(=O)N2CCOCC2)cn1 [Example I-127]           100
4  C[C@@H]1CN(C(=O)c2ccc(-n3ncnc3[C@H](C)NC(=O)c3cc(C(F)(F)F)cc(C(F)(F)F)c3)nc2)CCO1 [Example I-69]           100
5  Cc1nc([C@H](C)NC(=O)c2cc(OC(F)(F)F)cc(C3CC3)c2)n(-c2ccc(C(=O)N3C[C@@H](C)O[C@@H](C)C3)cn2)n1 [Example I-115]            90
6  CCc1nc([C@H](C)NC(=O)c2cc(C(F)(F)F)cc(C(F)(F)F)c2)n(-c2ccc(C(=O)N3CCOCC3)cn2)n1 [Example I-131]           100
